# System: CD8+ T cells
# Test Description: In vitro immunogenicity: T-cell priming with artificial APCs loaded with peptide/MHC and anti-CD28, pMHC multimer readout
# Assay type: cell-based, human
# Condition Notes: Table 10A; HLA class I peptides
Endpoint Name: Wells (in vitro immunogenicity)

>>> meas_value("308 (KLLSDPNYGV; listed as Homo sapiens) [compound 308]")
"+ (<20% = +)"
>>> meas_value("254 (FLMKNSDLYGA; listed as Homo sapiens) [compound 254]")
"+ (<20% = +)"
>>> meas_value("322 (SLHFLILYV; listed as Homo sapiens) [compound 322]")
"++ (20%-49% = ++)"
>>> meas_value("294 (FLLAEDTKV; listed as Homo sapiens) [compound 294]")
"++ (20%-49% = ++)"
>>> meas_value("243 (ALAGIVTNV; listed as Homo sapiens) [compound 243]")
"+ (<20% = +)"
>>> meas_value("332 (AVVEFLTSV; listed as Homo sapiens) [compound 332]")
"+ (<20% = +)"
>>> meas_value("267 (LLTDNVVKL; listed as Homo sapiens) [compound 267]")
"+ (<20% = +)"
>>> meas_value("248 (GLFAGLGGAGA; listed as Homo sapiens) [compound 248]")
"+ (<20% = +)"
>>> meas_value("269 (ALNESLVEC; listed as Homo sapiens) [compound 269]")
"+ (<20% = +)"
>>> meas_value("238 (KLLDKPEQFL; listed as Homo sapiens) [compound 238]")
"+ (<20% = +)"
>>> meas_value("278 (SLITGQDLLSV; listed as Homo sapiens) [compound 278]")
"+ (<20% = +)"
>>> meas_value("315 (KLSWDLIYL; listed as Homo sapiens) [compound 315]")
"++ (20%-49% = ++)"
>>> meas_value("252 (YLLDMPLWYL; listed as Homo sapiens) [compound 252]")
"+ (<20% = +)"
>>> meas_value("264 (KVFDEVIEV; listed as Homo sapiens) [compound 264]")
"+ (<20% = +)"
>>> meas_value("292 (ALGDKFLLRV; listed as Homo sapiens) [compound 292]")
"+ (<20% = +)"
>>> meas_value("262 (KLAVALLAA; listed as Homo sapiens) [compound 262]")
"++ (20%-49% = ++)"
>>> meas_value("257 (VLLNEILEQV; listed as Homo sapiens) [compound 257]")
"++ (20%-49% = ++)"
>>> meas_value("336 (YVDPVITSI; listed as Homo sapiens) [compound 336]")
"++ (20%-49% = ++)"
>>> meas_value("326 (ALSGTLSGV; listed as Homo sapiens) [compound 326]")
"+ (<20% = +)"
